Target: Adrenergic β2 (Homo sapiens)
Construct: Adherent H292 cells are removed from tissue culture flasks by treatment with Accutase™ cell detachment solution; endogenous in cells; host or cells: H292 cells
Sequence (P07550 whole entry): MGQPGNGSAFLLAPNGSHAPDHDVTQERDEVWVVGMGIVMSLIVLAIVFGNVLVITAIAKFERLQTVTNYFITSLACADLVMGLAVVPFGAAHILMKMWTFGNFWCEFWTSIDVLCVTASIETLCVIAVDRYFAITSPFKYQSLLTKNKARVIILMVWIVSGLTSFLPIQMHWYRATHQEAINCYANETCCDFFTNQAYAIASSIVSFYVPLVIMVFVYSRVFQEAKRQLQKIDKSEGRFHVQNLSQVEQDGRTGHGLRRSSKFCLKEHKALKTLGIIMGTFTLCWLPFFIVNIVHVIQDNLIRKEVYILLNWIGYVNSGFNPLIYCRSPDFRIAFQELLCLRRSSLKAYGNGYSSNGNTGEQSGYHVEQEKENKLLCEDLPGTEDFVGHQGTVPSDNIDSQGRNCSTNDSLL
Test: Adrenergic β2 mediated cAMP production in H292 cells (AlphaScreen), concentration response
Format: cell-based
Details: fraction relative to the maximum activity determined for formoterol
β2 Intrinsic Activity values by entry
Field format: numeric only.

Compound: CC(C)c1nc(C(=O)N2CCOC3(CCN(CCc4cccc(CCOCCC(=O)N(CCNCCc5ccc(O)c6c5OCC(=O)N6)C5CCCCC5)c4)CC3)C2)cs1 [Example 36, ditrifluoroacetate]
β2 Intrinsic Activity: 1.0
--
Compound: CCc1nc(C(=O)N2CCOC3(CCN(Cc4cccc(CCOCCC(=O)N(CC)CCNCCc5ccc(O)c6c5OCC(=O)N6)c4Cl)CC3)C2)cs1 [Example 30, ditrifluoroacetate]
β2 Intrinsic Activity: 0.8
--
Compound: Cc1ccn2cc(C(=O)N3CCOC4(CCN(Cc5cccc(CCOCCC(=O)N(CCNCCc6ccc(O)c7c6OCC(=O)N7)C6CCCCC6)c5)CC4)C3)nc2c1 [Example 150]
β2 Intrinsic Activity: 0.5
--
Compound: O=C1COc2c(CCNCCN(C(=O)CCOCCc3cccc(CN4CCC5(CC4)CN(C(=O)c4ccc6occc6c4)CCO5)c3)C3CCCCC3)ccc(O)c2N1 [Example 84]
β2 Intrinsic Activity: 1.0

Ask: Using known records, supply β2 Intrinsic Activity for Cc1nc(C(=O)N2CCOC3(CCN(Cc4ccc(CCOCCC(=O)N(CCNCCc5ccc(O)c6c5OCC(=O)N6)C5CCCCC5)cc4)CC3)C2)cs1 [Example 45, ditrifluoroacetate]
Reply: 0.9

* * *

// endpoint IC50 / system human muscarinic acetylcholine M3 receptor (Homo sapiens, UniProt P20309)
Structures can show the parent of a compound that is named as a salt.
Give the quantity in nM, number only.

Compound: O=C1COc2c(CCNCCN(C(=O)CCOCCc3cccc(CN4CCC5(CC4)CN(C(=O)c4ccc(Cl)s4)CCO5)c3)C3CCCCC3)ccc(O)c2N1 [Example 106]
System Name: human muscarinic acetylcholine M3 receptor (Homo sapiens, UniProt P20309)
Sequence (P20309 whole entry): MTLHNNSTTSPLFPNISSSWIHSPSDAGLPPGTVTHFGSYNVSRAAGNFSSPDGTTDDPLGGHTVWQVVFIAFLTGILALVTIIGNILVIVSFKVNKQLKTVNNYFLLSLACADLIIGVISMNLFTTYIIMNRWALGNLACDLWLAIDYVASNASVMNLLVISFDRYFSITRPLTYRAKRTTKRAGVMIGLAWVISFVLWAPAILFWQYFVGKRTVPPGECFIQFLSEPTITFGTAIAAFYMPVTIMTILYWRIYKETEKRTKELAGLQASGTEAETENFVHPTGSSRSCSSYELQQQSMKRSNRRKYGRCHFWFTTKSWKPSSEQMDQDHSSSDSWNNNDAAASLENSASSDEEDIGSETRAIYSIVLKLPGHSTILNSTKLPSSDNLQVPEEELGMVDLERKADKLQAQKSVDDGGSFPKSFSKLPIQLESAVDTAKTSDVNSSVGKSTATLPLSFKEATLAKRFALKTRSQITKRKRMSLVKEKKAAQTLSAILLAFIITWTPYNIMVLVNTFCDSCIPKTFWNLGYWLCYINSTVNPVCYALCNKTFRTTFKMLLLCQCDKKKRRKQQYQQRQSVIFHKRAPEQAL
IC50 / nM: 0.631

Ask: Using known records, supply IC50 for CCC(CC)c1nc(C(=O)N2CCOC3(CCN(Cc4cccc(CCOCCC(=O)N(CC)CCNCCc5ccc(O)c6c5OCC(=O)N6)c4F)CC3)C2)cs1 [Example 9, ditrifluoroacetate]
Reply: 0.501

Ask: Using known records, supply IC50 for CCN(CCNCCc1ccc(O)c2c1OCC(=O)N2)C(=O)CCOCCc1cccc(CN2CCC3(CC2)CN(C(=O)c2csc(CC(C)C)n2)CCO3)c1F [Example 69, ditrifluoroacetate]
Reply: 0.251

Ask: Using known records, supply IC50 for CC(C)(C)c1nc(C(=O)N2CCOC3(CCN(Cc4cccc(CCOCCC(=O)N(CCNCCc5ccc(O)c6c5OCC(=O)N6)C5CCCCC5)c4)CC3)C2)cs1 [Example 86]
Reply: 1.58

Ask: Using known records, supply IC50 for CCc1nc(C(=O)N2CCOC3(CCN(Cc4cccc(CCOCCC(=O)N(CC)CCNCCc5ccc(O)c6c5OCC(=O)N6)c4Cl)CC3)C2)cs1 [Example 30, ditrifluoroacetate]
Reply: 0.316

Ask: Using known records, supply IC50 for CCc1nc(C(=O)N2CCOC3(CCN(Cc4cccc(CCOCCC(=O)N(CCNCCc5ccc(O)c6c5OCC(=O)N6)C5CCCC5)c4Cl)CC3)C2)cs1 [Example 33a, sulphate salt]
Reply: 0.501

Ask: Using known records, supply IC50 for CC(C)c1nc(C(=O)N2CCOC3(CCN(Cc4cccc(SCCCOCCC(=O)N(CCNCCc5ccc(O)c6c5OCC(=O)N6)C5CCCC5)c4)CC3)C2)cs1 [Example 54, ditrifluoroacetate]
Reply: 0.1
